Data origin: patent US20230071840A1

- assay.target: GLP-1 Receptor (Homo sapiens, UniProt P43220)
- Sequence (P43220 24-463, species assumed): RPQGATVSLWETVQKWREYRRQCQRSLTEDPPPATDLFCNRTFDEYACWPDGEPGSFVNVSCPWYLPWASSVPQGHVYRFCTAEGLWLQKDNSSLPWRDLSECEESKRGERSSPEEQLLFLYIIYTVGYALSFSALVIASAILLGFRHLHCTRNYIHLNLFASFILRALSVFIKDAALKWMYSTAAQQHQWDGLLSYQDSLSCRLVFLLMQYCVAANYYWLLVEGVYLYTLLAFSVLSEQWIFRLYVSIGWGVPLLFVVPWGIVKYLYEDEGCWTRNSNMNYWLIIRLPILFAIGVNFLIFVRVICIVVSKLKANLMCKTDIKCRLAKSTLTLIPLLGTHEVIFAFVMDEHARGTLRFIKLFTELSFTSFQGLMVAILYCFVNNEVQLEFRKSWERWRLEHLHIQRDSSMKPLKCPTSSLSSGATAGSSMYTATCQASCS
- protocol.description: GLP-1R agonist cAMP stimulation assay (HEK293/GLP1R/CRE-LUC cells, cAMP dynamic 2 kit)
- Format: cell-based
- measurement.conditions: HEK293/CRE-Luc cell line stably expressing the GLP-1 Receptor; 30 min incubation at 37° C.; read-out: GLP1R cAMP Stimulation DR: EC50
pEC50: −log10 of the molar value.
The label depends only on pEC50: 1 if it is at least 9, 0 if it is smaller.

-- ask Could you please find out whether O=C(O)c1cnc2nc(CN3CCC(Oc4ccnc(Cc5ccc(Cl)cc5F)n4)CC3)n(C[C@@H]3CCO3)c2c1 [Compound 161a] has pEC50 that meets 9 or exceeds it?
-- reply 1

-- ask Could you please find out whether O=C(O)c1ccc2nc(CN3CCC(Oc4nc(Cc5ccc(Cl)cc5F)ncc4F)CC3)n(C[C@@H]3CCO3)c2n1 [Compound 151a] has pEC50 that meets 9 or exceeds it?
-- reply 1

-- ask Could you please find out whether O=C(O)c1ccc2nc(CN3CCC(Oc4nc(Cc5ccc(Cl)cc5F)ccc4F)CC3)n(C[C@@H]3CCO3)c2n1 [Compound 111a] has pEC50 that meets 9 or exceeds it?
-- reply 1

-- ask Could you please find out whether O=C(O)c1ccc2nc(CN3CCC(Oc4nc(Cc5ccc(Cl)cc5F)ccc4Cl)CC3)n(C[C@@H]3CCO3)c2n1 [Compound 137a] has pEC50 that meets 9 or exceeds it?
-- reply 0

-- ask Could you please find out whether O=C(O)c1ccc2nc(CN3CCC(Oc4cc(C(F)(F)F)cc(Cc5ccc(Cl)cc5)n4)CC3)n(C[C@@H]3CCO3)c2n1 [Compound 156a] has pEC50 that meets 9 or exceeds it?
-- reply 0

-- ask Could you please find out whether O=C(O)c1ccc2nc(CN3CCC(Oc4cccc(CN5Cc6ccccc6C5=O)n4)CC3)n(C[C@@H]3CCO3)c2n1 [Compound 148a] has pEC50 that meets 9 or exceeds it?
-- reply 0

-- ask Could you please find out whether O=C(O)c1ccc2nc(CN3CCC(Oc4cnn(Cc5ccc(Cl)cc5F)c4)CC3)n(C[C@@H]3CCO3)c2n1 [Compound 184a] has pEC50 that meets 9 or exceeds it?
-- reply 0

-- ask Could you please find out whether O=C(O)c1ccc2nc(CN3CCC(n4ncc5ccc(Cc6ccc(Cl)cc6F)nc54)CC3)n(C[C@@H]3CCO3)c2n1 [Compound 185a] has pEC50 that meets 9 or exceeds it?
-- reply 1

-- ask Could you please find out whether O=C(O)c1ccc2nc(CN3CCC(c4cccc5nc(Cc6ccc(Cl)cc6F)oc45)CC3)n(C[C@@H]3CCO3)c2n1 [Compound 143a] has pEC50 that meets 9 or exceeds it?
-- reply 1

-- ask Could you please find out whether O=C(O)c1ccc2nc(CN3CCC(Oc4ccn(Cc5ccc(Cl)cc5F)n4)CC3)n(C[C@@H]3CCO3)c2c1 [Compound 116a] has pEC50 that meets 9 or exceeds it?
-- reply 0

* * *

- assay.target: GLP-1 Receptor (Homo sapiens, UniProt P43220)
- protocol.description: GLP-1R agonist cAMP stimulation assay (HEK293/GLP1R/CRE-LUC cells, cAMP dynamic 2 kit)
- Type: cell-based
- measurement.conditions: HEK293/CRE-Luc cell line stably expressing the GLP-1 Receptor; 30 min incubation at 37° C.; read-out: GLP1R cAMP Stimulation DR: EC50
Consider the following molecules; for each one, report its EC50.
The reply should contain only the number, in nM.

-- ask Provide EC50 value for the following molecule: O=C(O)c1ccc2nc(CN3CCC(Oc4nn(Cc5ccc(Cl)cc5F)cc4Cl)CC3)n(C[C@@H]3CCO3)c2n1 [Compound 183a]
-- reply 0.85

-- ask Provide EC50 value for the following molecule: N#Cc1ccc(Cc2cccc(OC3CCN(Cc4nc5ccc(C(=O)O)cc5n4C[C@@H]4CCO4)CC3)n2)c(F)c1 [Compound 135a]
-- reply 1.8

-- ask Provide EC50 value for the following molecule: O=C(O)c1ccc2nc(CN3CCC(n4ccc5ccc(Cc6ccc(Cl)cc6F)nc54)CC3)n(C[C@@H]3CCO3)c2n1 [Compound 140a]
-- reply 1.2

-- ask Provide EC50 value for the following molecule: O=C(O)c1ccc2nc(C[C@H]3CC[C@H](Oc4cccc(Cc5ccc(Cl)cc5)n4)CC3)n(C[C@@H]3CCO3)c2n1 [Compound 181a]
-- reply 0.083
